Numbers sourced from PubChem BioAssay AID2842.

- Tested on: M. tuberculosis H37Rv growth inhibition
- test-method-notes: Mycobacterium tuberculosis H37Rv growth inhibition, putative kinase inhibitor library, confirmatory dose response (AID 2842);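 also: bacteria incubated one week before Alamar blue readout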
Reported values of IC90 for individual entries

Known results for compounds:
COc1ccc(-c2nnc(NC(=O)c3ccccc3C)o2)cc1: 9.97 µg/mL
CCc1cccc(OCC(O)Cn2c(NCc3ccccc3)nc3c2c(=O)[nH]c(=O)n3C)c1 (stereo not drawn): 22.1 µg/mL
CC(=O)Oc1cc(C)cc2oc(=O)c3c(c12)CCCC3: 6.79 µg/mL
COc1ccc(-c2noc(-c3cc4ccccc4oc3=Nc3ccc(Br)cc3)n2)cc1: 13.3 µg/mL
Oc1ccc2ccccc2c1N=Nc1nn[nH]n1: < 0.2 µg/mL

Now for the compound whose IC90 we want.
Form: compound = `Cc1ccc(Nc2nc(N3CCCC3)nc3nccnc23)cc1C` ; IC90 = 3.21 µg/mL

---

- Tested on: M. tuberculosis H37Rv growth inhibition
- test-method-notes: Mycobacterium tuberculosis H37Rv growth inhibition, putative kinase inhibitor library, confirmatory dose response (AID 2842);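 also: bacteria incubated one week before Alamar blue readout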
quantity-name: IC90

NNC(=O)c1ccc(-c2ccccc2Cl)o1: 3.96 µg/mL
COc1ccc(OC)c(-c2csc(NC(=O)c3ccc([N+](=O)[O-])o3)n2)c1: 27.1 µg/mL
Cc1ccccc1C(=O)Nc1nnc(-c2ccc(F)cc2)o1: < 0.2 µg/mL
O=C(Nc1nnc(-c2ccccc2Cl)o1)c1cccc(Oc2ccccc2)c1: 0.86 µg/mL
COc1ccc2c(c1)c(=O)c(C(=O)c1ccc(Cl)cc1)cn2Cc1ccccc1: 6.44 µg/mL
COc1cc(OC)cc(C(=O)Nc2nnc(-c3cccc(SC)c3)o2)c1: 12.4 µg/mL
COc1cc2ccccc2cc1C(=O)Nc1nnc(-c2ccc(F)cc2)o1: 5.59 µg/mL
O=C(CCOc1ccccc1)Nc1nnc(-c2cc(Cl)ccc2Cl)o1: 1.79 µg/mL

Now for the molecule whose IC90 we want.
Form: molecule = `CCc1ccc(Cc2cnc(NC(=O)c3c(C)coc3C)s2)cc1` ; IC90 = 7.42 µg/mL

---

Reported values of IC90 for individual entries
- System: M. tuberculosis H37Rv growth inhibition
- test-method-notes: Mycobacterium tuberculosis H37Rv growth inhibition, putative kinase inhibitor library, confirmatory dose response (AID 2842);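 also: bacteria incubated one week before Alamar blue readout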

Known results for compounds:
COc1ccc(C)c2sc(N3CCc4ccccc4C3)nc12: 11.1 µg/mL
COc1ccc(-c2nnc3c4cc5c(cc4n(Cc4ccc(C)cc4)cc2-3)OCCO5)cc1: 5.09 µg/mL
COc1cc(OC)cc(C(=O)N(CCCn2ccnc2)c2nc3c(F)cccc3s2)c1: 20.6 µg/mL
COc1ccc(-c2nnc(NC(=O)c3cccc(C)c3)o2)cc1: 87.7 µg/mL
CC(C)c1cc(-c2nc(-c3ccccc3)no2)n[nH]1: 12.7 µg/mL

Now for the compound whose IC90 we want.
Form: compound = `COC(=O)c1ccc(NC(=O)CSc2nc(-c3cccc(C)c3)ns2)cc1` ; IC90 = < 0.2 µg/mL

---

- Tested on: M. tuberculosis H37Rv growth inhibition
- test-method-notes: Mycobacterium tuberculosis H37Rv growth inhibition, putative kinase inhibitor library, confirmatory dose response (AID 2842);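 also: bacteria incubated one week before Alamar blue readout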
Reported values of IC90 for individual entries

Known results for compounds:
O=C(Nc1cccc(Cl)c1)Nc1c2c(nn1-c1ccccc1)CSC2: 19.7 µg/mL
CCOC(=O)N1CCc2c(sc(NC(=O)CCSc3ccccc3)c2C(N)=O)C1: 8.5 µg/mL
Cc1sc2nc(SCC#N)[nH]c(=O)c2c1C: 17.3 µg/mL

Form: compound = `COC(=O)c1ccc(C(=O)NNc2nc3ccc(Cl)cc3s2)cc1` ; IC90 = 28.9 µg/mL

Form: compound = `O=C(Nc1nnc(-c2ccccn2)o1)c1cccc(F)c1` ; IC90 = 3.47 µg/mL

---

- Test system: M. tuberculosis H37Rv growth inhibition
- test-method-notes: Mycobacterium tuberculosis H37Rv growth inhibition, putative kinase inhibitor library, confirmatory dose response (AID 2842);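 also: bacteria incubated one week before Alamar blue readout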
quantity-name: IC90

Known results for molecules:
CCCC(=O)Nc1nnc(-c2ccc(Cl)s2)o1: 27.2 µg/mL
COc1ccccc1-c1cnn2c(Nc3cccc(Cl)c3)cc(C)nc12: 1.72 µg/mL
COc1ccccc1-c1nnc(NC(=O)c2ccco2)o1: 13.4 µg/mL

Form field IC90 for item `O=C(Cc1cccc2ccccc12)Nc1nnc(-c2ccc(F)cc2)o1` on M. tuberculosis H37Rv growth inhibition: 22.4 µg/mL

Form field IC90 for item `O=C(Nc1nnc(-c2ccc(Br)cc2)o1)c1ccc([N+](=O)[O-])cc1` on M. tuberculosis H37Rv growth inhibition: 50.9 µg/mL

---

Reported values of IC90 for individual entries
- System: M. tuberculosis H37Rv growth inhibition
- test-method-notes: Mycobacterium tuberculosis H37Rv growth inhibition, putative kinase inhibitor library, confirmatory dose response (AID 2842);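 also: bacteria incubated one week before Alamar blue readout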

Known results for molecules:
Cc1ccc(C(=O)Nc2sc3c(c2C(N)=O)CCN(C)C3)cc1C: 18.8 µg/mL
CCOC(=O)N1CCc2c(sc(NC(=O)c3nc4ccccc4s3)c2C(N)=O)C1: 3.48 µg/mL
Cc1ccc(-n2ncc3c(=O)n(CC(=O)Nc4ccc([N+](=O)[O-])cc4)cnc32)cc1: 6.91 µg/mL
O=C(CSc1n[nH]c(=O)[nH]c1=O)c1ccccc1: 12.1 µg/mL
COc1cc2c3nnc(-c4ccc(C)cc4)c-3cn(Cc3ccc(Cl)cc3)c2cc1OC: 4.8 µg/mL

Form: molecule = `COc1ccc2nc(NNC(=O)c3cc4ccccc4oc3=O)sc2c1` ; IC90 = 30.8 µg/mL

---

- Tested on: M. tuberculosis H37Rv growth inhibition
- test-method-notes: Mycobacterium tuberculosis H37Rv growth inhibition, putative kinase inhibitor library, confirmatory dose response (AID 2842);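 also: bacteria incubated one week before Alamar blue readout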
quantity-name: IC90

Known results for compounds:
COc1cc(C(=O)Nc2nnc(-c3ccc4c(c3)CCCC4)o2)cc(OC)c1OC: 44.2 µg/mL
O=C(Nc1ccc(F)cc1)Nc1nc(C(=O)N2CCN(c3ccc(F)cc3)CC2)cs1: 7.09 µg/mL
O=C(Cc1ccccc1)Nc1nnc(-c2ccc3c(c2)CCCC3)o1: 55.8 µg/mL
CCc1ccc(-c2nnc3c4cc(OC)c(OC)cc4n(Cc4ccccc4F)cc2-3)cc1: 8.11 µg/mL

Form: compound = `CCOc1ccc(C(=O)Nc2nnc(-c3ccccn3)o2)cc1` ; IC90 = 1.03 µg/mL

---

- Tested on: M. tuberculosis H37Rv growth inhibition
- test-method-notes: Mycobacterium tuberculosis H37Rv growth inhibition, putative kinase inhibitor library, confirmatory dose response (AID 2842);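 also: bacteria incubated one week before Alamar blue readout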
quantity-name: IC90

Known results for compounds:
COC(=O)CSCC(=O)Nc1nnc(-c2ccccc2C)s1: 13.7 µg/mL
Cc1ccc(C)c(-c2nnc(NC(=O)c3ccc4ccccc4c3)o2)c1: 18.8 µg/mL

Now for the compound whose IC90 we want.
Form: compound = `COc1cccc(-c2csc(NC(=O)C3CCCCC3)n2)c1` ; IC90 = 19.8 µg/mL

---

- Tested on: M. tuberculosis H37Rv growth inhibition
- test-method-notes: Mycobacterium tuberculosis H37Rv growth inhibition, putative kinase inhibitor library, confirmatory dose response (AID 2842);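 also: bacteria incubated one week before Alamar blue readout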
Reported values of IC90 for individual entries

Known results for compounds:
CC(C)COc1ccc(S(=O)(=O)Nc2ccc3c(c2)C(=O)Nc2ccccc2O3)cc1: 6.99 µg/mL
Cc1cccc(C(=O)Nc2nnc(-c3cc(C)ccc3C)o2)c1: 3.39 µg/mL
COc1ccccc1C(=O)Nc1nnc(-c2ccc(F)cc2)o1: 34.9 µg/mL
Cc1ccc(-c2nnc(NC(=O)c3ccccc3C)o2)c(C)c1: 2.52 µg/mL

Form: compound = O=C1CN(C(=O)c2cc(Br)ccc2Cl)C(c2ccccc2)c2cc(F)ccc2N1 (stereo not given) ; IC90 = 26.1 µg/mL

Form: compound = `O=C(Nc1nnc(-c2cc(Cl)ccc2Cl)o1)c1ccc(Br)s1` ; IC90 = 2.65 µg/mL

Form: compound = CCOC(=O)N1CCc2c(sc(NC(=O)C3COc4ccccc4O3)c2C(N)=O)C1 (stereo not given) ; IC90 = 8.19 µg/mL

Form: compound = `COc1ccc2nc(Nc3nc4c(s3)C(=O)CC(C)(C)C4)sc2c1` ; IC90 = 15.7 µg/mL

Form: compound = `O=c1[nH]c(CSc2ccccc2)nc2ccccc12` ; IC90 = 7.54 µg/mL

Form: compound = `COC(=O)c1c(NC(=O)c2ccc3c(c2)CCCC3)sc2c1CCN(C(C)=O)C2` ; IC90 = 6.21 µg/mL

Form: compound = `O=C(Nc1cccc(-c2ccc3nnc(-c4cccnc4)n3n2)c1)c1ccc(F)cc1F` ; IC90 = 27.6 µg/mL

Form: compound = `O=C(Nc1nnc(-c2ccc(Cl)s2)o1)c1cccc([N+](=O)[O-])c1` ; IC90 = 6.09 µg/mL

Form: compound = `COc1cccc2sc(Nc3nc(-c4ccc(Cl)s4)cs3)nc12` ; IC90 = 7.28 µg/mL

Form: compound = `Nc1[nH]nc2nc(N3CCCCC3)nc(-c3ccc4c(c3)OCO4)c12` ; IC90 = 11.6 µg/mL
